# System: P. aeruginosa 799/WT
# assay.overview: Minimum inhibitory concentration in vitro, agar dilution method
# Assay type: cell-based
# assay.conditions: Pseudomonas aeruginosa; P. aeruginosa 799/WT, agar dilution; read-out: MIC
Counter-ions that a name gives are not always drawn.
Examples of compounds with documented MIC follow.
Kindly answer with a numeric value in µg/mL, unit omitted.

Use the examples below as a reference point.
CC(C)(O/N=C(\C(=O)N[C@@H]1C(=O)N2C(C(=O)O)=C(CS(=O)(=O)c3ccc(O)c(O)c3)CS[C@H]12)c1csc(N)n1)C(=O)NO
8
Cc1cc(SCC2=C(C(=O)O)N3C(=O)[C@@H](NC(=O)/C(=N\OC(C)(C)C(=O)NNC(=O)c4ccc(O)c(O)c4)c4csc(N)n4)[C@H]3SC2)n2nc(CS(=O)(=O)c3ccc(O)c(O)c3)nc2n1
0.12
Nc1nc(/C(=N/OCc2cc(Cl)c(O)c(O)c2Cl)C(=O)N[C@@H]2C(=O)N3C(C(=O)O)=C(CSc4nc(-c5ccccc5)ncc4-c4ccc(O)c(O)c4)CS[C@H]23)cs1
0.12
Nc1nc(/C(=N/OCc2ccc(O)c(O)c2)C(=O)N[C@@H]2C(=O)N3C(C(=O)O)=C(CS(=O)(=O)c4ccc(O)c(O)c4)CS[C@H]23)cs1
1
CC(C)(O/N=C(\C(=O)N[C@@H]1C(=O)N2C(C(=O)O)=C(CS(=O)(=O)c3ccc(O)c(O)c3)CS[C@H]12)c1csc(N)n1)C(=O)NNC(=O)c1ccc(O)c(O)c1
4
Nc1nc(/C(=N/OCc2nc(=O)c(O)c[nH]2)C(=O)N[C@@H]2C(=O)N3C(C(=O)O)=C(CSc4cc(-c5ccc(O)c(O)c5)nc5ccnn45)CS[C@H]23)cs1
1
Cc1cc(SCC2=C(C(=O)O)N3C(=O)[C@@H](NC(=O)/C(=N\OCc4ccc(O)c(O)c4)c4csc(N)n4)[C@H]3SC2)n2nc(CNS(=O)(=O)c3ccc(O)c(O)c3)nc2n1
0.25
Nc1nc(/C(=N/OCS(=O)(=O)c2ccc(O)c(O)c2)C(=O)N[C@@H]2C(=O)N3C(C(=O)O)=C(CS(=O)(=O)c4ccc(O)c(O)c4)CS[C@H]23)cs1 [Example 22, sodium salt]
16

Please examine the following record next.
Query: Report MIC for `Nc1nc(/C(=N/OCc2cc(=O)c(O)co2)C(=O)N[C@@H]2C(=O)N3C(C(=O)O)=C(CSc4cc(-c5ccc(O)c(O)c5)nc5ccnn45)CS[C@H]23)cs1` tested on P. aeruginosa 799/WT.
Reply: 1

###

In this section we review reported MIC values for a set of compounds.
# Test system: P. vulgaris 1028
# assay.overview: Minimum inhibitory concentration in vitro, agar dilution method
# Format: cell-based
# assay.conditions: Proteus vulgaris, 1028

# annotated cases, reported MIC shown
Cc1cc(SCC2=C(C(=O)[O-])N3C(=O)[C@@H](NC(=O)/C(=N\OCS(=O)(=O)c4ccc(O)c(O)c4)c4csc(N)n4)[C@H]3SC2)n2nc(CNS(=O)(=O)c3ccc(O)c(O)c3)nc2n1.[Na+]
< 0.1 µg/mL
Cc1cc(SCC2=C(C(=O)[O-])N3C(=O)[C@@H](NC(=O)/C(=N\OC(C)(C)C(=O)NNC(=O)c4ccc(O)c(O)c4)c4csc(N)n4)[C@H]3SC2)n2nc(CNC(=O)c3ccc(O)c(O)c3)nc2n1.[Na+]
< 0.1 µg/mL
Cc1cc(SCC2=C(C(=O)[O-])N3C(=O)[C@@H](NC(=O)/C(=N\OCc4nc(=O)c(O)c[nH]4)c4csc(N)n4)[C@H]3SC2)n2nc(COC(=O)c3ccc(O)c(O)c3)nc2n1.[Na+]
< 0.1 µg/mL
Cc1cc(SCC2=C(C(=O)[O-])N3C(=O)[C@@H](NC(=O)/C(=N\OCS(=O)(=O)c4ccc(O)c(O)c4)c4csc(N)n4)[C@H]3SC2)n2nc(COC(=O)c3ccc(O)c(O)c3)nc2n1.[Na+]
0.12 µg/mL

Could you now look at the following compound, please?
Query: Could you share what MIC was measured for `Cc1cc(SCC2=C(C(=O)[O-])N3C(=O)[C@@H](NC(=O)/C(=N\OCc4ccc(O)c(O)c4)c4csc(N)n4)[C@H]3SC2)n2nc(COC(=O)c3ccc(O)c(O)c3)nc2n1.[Na+]` , tested on P. vulgaris 1028?
Reply: < 0.1 µg/mL

###

Let's look at some compounds and their measured MIC.
# Tested on: S. aureus 6538
# assay.overview: Minimum inhibitory concentration in vitro, agar dilution method
# Type: cell-based
# assay.conditions: Staphylococcus aureus, 6538
The answer is to be given in µg/mL; state only the numeric part.

Cc1cc(SCC2=C(C(=O)[O-])N3C(=O)[C@@H](NC(=O)/C(=N\OC(C)(C)C(=O)NNC(=O)c4ccc(O)c(O)c4)c4csc(N)n4)[C@H]3SC2)n2nc(CNC(=O)c3ccc(O)c(O)c3)nc2n1.[Na+] [Example 61]
16

Query: Could you share what MIC was measured for Cc1cc(SCC2=C(C(=O)[O-])N3C(=O)[C@@H](NC(=O)/C(=N\OCc4ccc(O)c(O)c4)c4csc(N)n4)[C@H]3SC2)n2nc(CS(=O)(=O)c3ccc(O)c(O)c3)nc2n1.[Na+] [Example 11] , tested on S. aureus 6538?
Reply: 8

Query: Test system S. aureus 6538; read-out MIC; what value for Cc1cc(SCC2=C(C(=O)[O-])N3C(=O)[C@@H](NC(=O)/C(=N\OCc4ccc(O)c(O)c4F)c4csc(N)n4)[C@H]3SC2)n2nc(CS(=O)(=O)c3ccc(O)c(O)c3)nc2n1.[Na+] [Example 12] ?
Reply: 16

Query: For S. aureus 6538, provide MIC of Cc1cc(SCC2=C(C(=O)[O-])N3C(=O)[C@@H](NC(=O)/C(=N\OC(C)(C)C(=O)NNC(=O)c4ccc(O)c(O)c4)c4csc(N)n4)[C@H]3SC2)n2nc(CNS(=O)(=O)c3ccc(O)c(O)c3)nc2n1.[Na+] [Example 42] please.
Reply: 32

###

Items are presented alongside their recorded log10 of ED50.
# Test system: Pseudomonas aeruginosa BA
# assay.overview: Experimental systemic septicaemia in the mouse
# Assay type: in vivo
# assay.conditions: sc, 96 h, P. aeruginosa BA, albino mice, s.c. 1, 3 and 5 hours after infection, survival after 4 days, read-out: ED50
Structures can show the parent of a compound that is named as a salt.
Kindly note that the scale is log10 and the underlying ED50 is in mg/kg.

Worked cases, log10 of ED50 given:
CC(C)(O/N=C(\C(=O)N[C@@H]1C(=O)N2C(C(=O)O)=C(CSc3nnc(-c4ccc(O)c(O)c4)o3)CS[C@H]12)c1csc(N)n1)C(=O)NNC(=O)c1ccc(O)c(O)c1
0.32
Nc1nc(/C(=N/OCS(=O)(=O)c2ccc(O)c(O)c2)C(=O)N[C@@H]2C(=O)N3C(C(=O)O)=C(CS(=O)(=O)c4ccc(O)c(O)c4)CS[C@H]23)cs1 [Example 22, sodium salt]
0.26
Cc1cc(SCC2=C(C(=O)O)N3C(=O)[C@@H](NC(=O)/C(=N\OCc4ccc(O)c(O)c4F)c4csc(N)n4)[C@H]3SC2)n2nc(CNS(=O)(=O)c3ccc(O)c(O)c3)nc2n1
-1.47
Cc1cc(SCC2=C(C(=O)O)N3C(=O)[C@@H](NC(=O)/C(=N\OC(C)(C)C(=O)NNC(=O)c4ccc(O)c(O)c4)c4csc(N)n4)[C@H]3SC2)n2nc(COC(=O)c3ccc(O)c(O)c3)nc2n1
-1.72
Nc1nc(/C(=N/OCc2nc(=O)c(O)c[nH]2)C(=O)N[C@@H]2C(=O)N3C(C(=O)O)=C(CSc4cc(-c5ccc(O)c(O)c5)nc5ccnn45)CS[C@H]23)cs1
0.60

Query: Which log10 of ED50 is listed for `Nc1nc(/C(=N/OCc2cc(=O)c(O)co2)C(=O)N[C@@H]2C(=O)N3C(C(=O)O)=C(CSc4cc(-c5ccc(O)c(O)c5)nc5ccnn45)CS[C@H]23)cs1` ?
Reply: 0.85

Query: Using the record for `CC(C)(O/N=C(\C(=O)N[C@@H]1C(=O)N2C(C(=O)O)=C(CS(=O)(=O)c3ccc(O)c(O)c3)CS[C@H]12)c1csc(N)n1)C(=O)NO` , report its log10 of ED50.
Reply: -0.41

###

# System: K. pneumoniae 418
# assay.overview: Minimum inhibitory concentration in vitro, agar dilution method
# Type: cell-based
# assay.conditions: Klebsiella pneumoniae; K. pneumoniae 418, agar dilution; read-out: MIC
Counter-ions that a name gives are not always drawn.
Each record here notes measured MIC.
Use µg/mL as the unit, but write only the number.

Field: example entries. Status: answers known.
Nc1nc(/C(=N/OCc2ccc(O)c(O)c2)C(=O)N[C@@H]2C(=O)N3C(C(=O)O)=C(CS(=O)(=O)c4ccc(O)c(O)c4)CS[C@H]23)cs1
0.12
Nc1nc(/C(=N/OCc2nc(=O)c(O)c[nH]2)C(=O)N[C@@H]2C(=O)N3C(C(=O)O)=C(CSc4cc(-c5ccc(O)c(O)c5)nc5ccnn45)CS[C@H]23)cs1
0.06
CC(C)(O/N=C(\C(=O)N[C@@H]1C(=O)N2C(C(=O)O)=C(CS(=O)(=O)c3ccc(O)c(O)c3)CS[C@H]12)c1csc(N)n1)C(=O)NO
0.5
Nc1nc(/C(=N/OCc2cc(=O)c(O)co2)C(=O)N[C@@H]2C(=O)N3C(C(=O)O)=C(CSc4cc(-c5ccc(O)c(O)c5)nc5ccnn45)CS[C@H]23)cs1
0.06
CC(C)(O/N=C(\C(=O)N[C@@H]1C(=O)N2C(C(=O)O)=C(CSc3nc(-c4ccccc4)ncc3-c3ccc(O)c(O)c3)CS[C@H]12)c1csc(N)n1)C(=O)NO
0.25

Query: Can you share its MIC? I mean this molecule: Nc1nc(/C(=N/OCS(=O)(=O)c2ccc(O)c(O)c2)C(=O)N[C@@H]2C(=O)N3C(C(=O)O)=C(CS(=O)(=O)c4ccc(O)c(O)c4)CS[C@H]23)cs1 [Example 22, sodium salt]
Reply: 0.5

Query: Item `Cc1cc(SCC2=C(C(=O)O)N3C(=O)[C@@H](NC(=O)/C(=N\OC(C)(C)C(=O)NO)c4csc(N)n4)[C@H]3SC2)n2nc(CNS(=O)(=O)c3ccc(O)c(O)c3)nc2n1` has what recorded MIC?
Reply: 0.12

Query: Entry `CC(C)(O/N=C(\C(=O)N[C@@H]1C(=O)N2C(C(=O)O)=C(CSc3nc(-c4ccccc4)ncc3-c3ccc(O)c(O)c3)CS[C@H]12)c1csc(N)n1)C(=O)NNC(=O)c1ccc(O)c(O)c1` : reported MIC = ?
Reply: 0.25

Query: Reported MIC, molecule `Nc1nc(/C(=N/OCc2cc(Cl)c(O)c(O)c2Cl)C(=O)N[C@@H]2C(=O)N3C(C(=O)O)=C(CSc4nc(-c5ccccc5)ncc4-c4ccc(O)c(O)c4)CS[C@H]23)cs1` : ____
Reply: 0.12

Query: Could you tell me which MIC is on file for `CC(C)(O/N=C(\C(=O)N[C@@H]1C(=O)N2C(C(=O)O)=C(CSc3nnc(-c4ccc(O)c(O)c4)o3)CS[C@H]12)c1csc(N)n1)C(=O)NNC(=O)c1ccc(O)c(O)c1` ?
Reply: 0.06
